target: HBV virions (Genotype D) (Hepatitis B virus genotype D); test: cell-based or functional assay
observation type: EC50, in-vitro neutralization (HBeAg data) (nM)
Your answer should be a plain number; it is taken to be in nM.

Consider the binder mAb006-11-IgG4 (antibody, V domains shown) VH: QLQLQESGPGLVKPSETLSLTCTVSGGSMNINDYYWDWVRLSPGKGLEWIGAIYSSGTTYYNPSLKSRVTISVDMSKDQFSLRLSSVTAADTAVYYCVRDGPHRLYYGSGTYYNPRGGYYSYALDVWGQGTTVIV VL: QLVLTQSPSASASLGASVKLTCTLSSGHGTYAIAWHQLRSEKGPRYLMKVNSDGSHIKGDGIPDRFSGSSSGAERYLIISSLQSEDEADYYCQTWGTGIVIFGGGTKLTVL and give its measured EC50, in-vitro neutralization (HBeAg data). 0.242

Next binder: mAb006-11-IgG3 (antibody, V domains shown) VH: QLQLQESGPGLVKPSETLSLTCTVSGGSMNINDYYWDWVRLSPGKGLEWIGAIYSSGTTYYNPSLKSRVTISVDMSKDQFSLRLSSVTAADTAVYYCVRDGPHRLYYGSGTYYNPRGGYYSYALDVWGQGTTVIV VL: QLVLTQSPSASASLGASVKLTCTLSSGHGTYAIAWHQLRSEKGPRYLMKVNSDGSHIKGDGIPDRFSGSSSGAERYLIISSLQSEDEADYYCQTWGTGIVIFGGGTKLTVL 1.05

Cool, now mAb006-11-IgG2 (antibody, V domains shown) VH: QLQLQESGPGLVKPSETLSLTCTVSGGSMNINDYYWDWVRLSPGKGLEWIGAIYSSGTTYYNPSLKSRVTISVDMSKDQFSLRLSSVTAADTAVYYCVRDGPHRLYYGSGTYYNPRGGYYSYALDVWGQGTTVIV VL: QLVLTQSPSASASLGASVKLTCTLSSGHGTYAIAWHQLRSEKGPRYLMKVNSDGSHIKGDGIPDRFSGSSSGAERYLIISSLQSEDEADYYCQTWGTGIVIFGGGTKLTVL 1.32

Note: attention shifts to another entry.
// query EC50, in-vitro neutralization (HBeAg data) value for entry mAb006-11-IgG1 (antibody, V domains shown, also called mAb11; mAb006-11G1) VH: QLQLQESGPGLVKPSETLSLTCTVSGGSMNINDYYWDWVRLSPGKGLEWIGAIYSSGTTYYNPSLKSRVTISVDMSKDQFSLRLSSVTAADTAVYYCVRDGPHRLYYGSGTYYNPRGGYYSYALDVWGQGTTVIV VL: QLVLTQSPSASASLGASVKLTCTLSSGHGTYAIAWHQLRSEKGPRYLMKVNSDGSHIKGDGIPDRFSGSSSGAERYLIISSLQSEDEADYYCQTWGTGIVIFGGGTKLTVL 12.6
